This collection of values is drawn from patent US20230405028A1.

- Tested on: Human primary small intestinal epithelial cells (HSIEC); further: unit not given here
- Reported conditions: 200 μM; 48 h
Field: Cellular Metabolic Activity. Provide a value for each of the molecules that follow.
Reply: number alone, nothing else.

Inquiry: So what Cellular Metabolic Activity did COc1cc(CNC(=O)CCCC/C=C/C(C)C)ccc1O [capsaicin] get with Human primary small intestinal epithelial cells (HSIEC)?
Reply text: 0.082

Inquiry: So what Cellular Metabolic Activity did C=CCc1ccc(O)c(OC)c1 [eugenol] get with Human primary small intestinal epithelial cells (HSIEC)?
Reply text: 0.111

Inquiry: So what Cellular Metabolic Activity did O=C/C=C/c1ccccc1 [cinnamaldehyde, (2E)-3-phenylprop-2-enal] get with Human primary small intestinal epithelial cells (HSIEC)?
Reply text: 0.009

Inquiry: So what Cellular Metabolic Activity did O=C(/C=C/C=C/c1ccc2c(c1)OCO2)N1CCCCC1 [piperine] get with Human primary small intestinal epithelial cells (HSIEC)?
Reply text: 0.171

Inquiry: So what Cellular Metabolic Activity did Cc1ccc(C(C)C)cc1O [carvacrol] get with Human primary small intestinal epithelial cells (HSIEC)?
Reply text: 0.088

---

- Test system: Human primary small intestinal epithelial cells (HSIEC); further: unit not given here
- Reported conditions: 20 μM; 72 h
Cellular Metabolic Activity strictly under 0.3 means 1; at 0.3 or over means -1.

Inquiry: # check: Cellular Metabolic Activity < 0.3 for COc1cc(/C=C/C(=O)CC(=O)/C=C/c2ccc(O)c(OC)c2)ccc1O
Reply text: 1

Inquiry: # check: Cellular Metabolic Activity < 0.3 for Cc1ccc(C(C)C)cc1O
Reply text: 1

Inquiry: # check: Cellular Metabolic Activity < 0.3 for O=C/C=C/c1ccccc1
Reply text: 1

Inquiry: # check: Cellular Metabolic Activity < 0.3 for O=C(/C=C/C=C/c1ccc2c(c1)OCO2)N1CCCCC1
Reply text: 1

Inquiry: # check: Cellular Metabolic Activity < 0.3 for CN(C)CCc1c[nH]c2cccc(OP(=O)(O)O)c12 [psilocybin, reference compound]
Reply text: -1

---

- System: Human primary small intestinal epithelial cells (HSIEC); further: unit not given here
- Reported conditions: 80 μM; 48 h
Cellular Metabolic Activity strictly under 0.02 means satisfied; at 0.02 or over means not satisfied.

Inquiry: # check: Cellular Metabolic Activity < 0.02 for CN(C)CCc1c[nH]c2cccc(OP(=O)(O)O)c12 [psilocybin, reference compound]
Reply text: not satisfied

Inquiry: # check: Cellular Metabolic Activity < 0.02 for O=C(/C=C/C=C/c1ccc2c(c1)OCO2)N1CCCCC1 [piperine]
Reply text: not satisfied

Inquiry: # check: Cellular Metabolic Activity < 0.02 for COc1cc(/C=C/C(=O)CC(=O)/C=C/c2ccc(O)c(OC)c2)ccc1O [curcumin]
Reply text: satisfied

Inquiry: # check: Cellular Metabolic Activity < 0.02 for O=C/C=C/c1ccccc1 [cinnamaldehyde, (2E)-3-phenylprop-2-enal]
Reply text: not satisfied

Inquiry: # check: Cellular Metabolic Activity < 0.02 for Cc1ccc(C(C)C)cc1O [carvacrol]
Reply text: not satisfied

---

- Test system: Human primary small intestinal epithelial cells (HSIEC); further: unit not given here
- Reported conditions: 5 μM; 72 h
Field: Cellular Metabolic Activity. Provide a value for each of the molecules that follow.
Reply: number alone, nothing else.

Inquiry: Recorded Cellular Metabolic Activity for O=C/C=C/c1ccccc1 [cinnamaldehyde, (2E)-3-phenylprop-2-enal] , please?
Reply text: 0.236

Inquiry: Recorded Cellular Metabolic Activity for O=C(/C=C/C=C/c1ccc2c(c1)OCO2)N1CCCCC1 [piperine] , please?
Reply text: 0.278

Inquiry: Recorded Cellular Metabolic Activity for Cc1ccc(C(C)C)cc1O [carvacrol] , please?
Reply text: 0.261

Inquiry: Recorded Cellular Metabolic Activity for COc1cc(CNC(=O)CCCC/C=C/C(C)C)ccc1O [capsaicin] , please?
Reply text: 0.296

Inquiry: Recorded Cellular Metabolic Activity for COc1cc(/C=C/C(=O)CC(=O)/C=C/c2ccc(O)c(OC)c2)ccc1O [curcumin] , please?
Reply text: 0.299

Inquiry: Recorded Cellular Metabolic Activity for CN(C)CCc1c[nH]c2cccc(OP(=O)(O)O)c12 [psilocybin, reference compound] , please?
Reply text: 0.380

---

- Tested on: Human primary small intestinal epithelial cells (HSIEC); further: unit not given here
- Reported conditions: 40 μM; 24 h
Field: Cellular Metabolic Activity. Provide a value for each of the compounds that follow.
Reply: number alone, nothing else.

Inquiry: So what Cellular Metabolic Activity did O=C/C=C/c1ccccc1 get with Human primary small intestinal epithelial cells (HSIEC)?
Reply text: 0.171

Inquiry: So what Cellular Metabolic Activity did CN(C)CCc1c[nH]c2cccc(OP(=O)(O)O)c12 [psilocybin, reference compound] get with Human primary small intestinal epithelial cells (HSIEC)?
Reply text: 0.182

Inquiry: So what Cellular Metabolic Activity did COc1cc(/C=C/C(=O)CC(=O)/C=C/c2ccc(O)c(OC)c2)ccc1O get with Human primary small intestinal epithelial cells (HSIEC)?
Reply text: 0.038

Inquiry: So what Cellular Metabolic Activity did Cc1ccc(C(C)C)cc1O get with Human primary small intestinal epithelial cells (HSIEC)?
Reply text: 0.070

Inquiry: So what Cellular Metabolic Activity did O=C(/C=C/C=C/c1ccc2c(c1)OCO2)N1CCCCC1 get with Human primary small intestinal epithelial cells (HSIEC)?
Reply text: 0.069

---

- Test system: Human primary small intestinal epithelial cells (HSIEC); further: unit not given here
- Reported conditions: 40 μM; 96 h
Field: Cellular Metabolic Activity. Provide a value for each of the compounds that follow.
Reply: number alone, nothing else.

Inquiry: So what Cellular Metabolic Activity did O=C/C=C/c1ccccc1 get with Human primary small intestinal epithelial cells (HSIEC)?
Reply text: 0.015

Inquiry: So what Cellular Metabolic Activity did Cc1ccc(C(C)C)cc1O get with Human primary small intestinal epithelial cells (HSIEC)?
Reply text: 0.544

Inquiry: So what Cellular Metabolic Activity did COc1cc(/C=C/C(=O)CC(=O)/C=C/c2ccc(O)c(OC)c2)ccc1O get with Human primary small intestinal epithelial cells (HSIEC)?
Reply text: 0.00

Inquiry: So what Cellular Metabolic Activity did CN(C)CCc1c[nH]c2cccc(OP(=O)(O)O)c12 [psilocybin, reference compound] get with Human primary small intestinal epithelial cells (HSIEC)?
Reply text: 0.685

Inquiry: So what Cellular Metabolic Activity did O=C(/C=C/C=C/c1ccc2c(c1)OCO2)N1CCCCC1 get with Human primary small intestinal epithelial cells (HSIEC)?
Reply text: 0.423

---

- Tested on: Human primary small intestinal epithelial cells (HSIEC); further: unit not given here
- Reported conditions: 40 μM; time 0
Cellular Metabolic Activity strictly under 0.03 means True; at 0.03 or over means False.

Inquiry: # check: Cellular Metabolic Activity < 0.03 for O=C(/C=C/C=C/c1ccc2c(c1)OCO2)N1CCCCC1
Reply text: True

Inquiry: # check: Cellular Metabolic Activity < 0.03 for O=C/C=C/c1ccccc1
Reply text: True

Inquiry: # check: Cellular Metabolic Activity < 0.03 for COc1cc(/C=C/C(=O)CC(=O)/C=C/c2ccc(O)c(OC)c2)ccc1O
Reply text: False

Inquiry: # check: Cellular Metabolic Activity < 0.03 for CN(C)CCc1c[nH]c2cccc(OP(=O)(O)O)c12 [psilocybin, reference compound]
Reply text: False

Inquiry: # check: Cellular Metabolic Activity < 0.03 for Cc1ccc(C(C)C)cc1O
Reply text: True

---

Field: Cellular Metabolic Activity. Provide a value for each of the compounds that follow.
- Tested on: Human primary small intestinal epithelial cells (HSIEC); further: unit not given here
- Reported conditions: 200 μM; 24 h
Reply: number alone, nothing else.

Inquiry: Recorded Cellular Metabolic Activity for O=C/C=C/c1ccccc1 , please?
Reply text: 0.191

Inquiry: Recorded Cellular Metabolic Activity for COc1cc(CNC(=O)CCCC/C=C/C(C)C)ccc1O , please?
Reply text: 0.044

Inquiry: Recorded Cellular Metabolic Activity for C=CCc1ccc(O)c(OC)c1 , please?
Reply text: 0.064

Inquiry: Recorded Cellular Metabolic Activity for O=C(/C=C/C=C/c1ccc2c(c1)OCO2)N1CCCCC1 , please?
Reply text: 0.071

Inquiry: Recorded Cellular Metabolic Activity for Cc1ccc(C(C)C)cc1O , please?
Reply text: 0.061

---

- Tested on: Human primary small intestinal epithelial cells (HSIEC); further: unit not given here
- Reported conditions: 80 μM; time 0
Readout name: Cellular Metabolic Activity

Inquiry: Recorded Cellular Metabolic Activity for O=C/C=C/c1ccccc1 , please?
Reply text: 0.030

Inquiry: Recorded Cellular Metabolic Activity for CN(C)CCc1c[nH]c2cccc(OP(=O)(O)O)c12 [psilocybin, reference compound] , please?
Reply text: 0.042

Inquiry: Recorded Cellular Metabolic Activity for COc1cc(/C=C/C(=O)CC(=O)/C=C/c2ccc(O)c(OC)c2)ccc1O , please?
Reply text: 0.041

Inquiry: Recorded Cellular Metabolic Activity for Cc1ccc(C(C)C)cc1O , please?
Reply text: 0.025

Inquiry: Recorded Cellular Metabolic Activity for O=C(/C=C/C=C/c1ccc2c(c1)OCO2)N1CCCCC1 , please?
Reply text: 0.026

---

- Tested on: Human primary small intestinal epithelial cells (HSIEC); further: unit not given here
- Reported conditions: 200 μM; 96 h
Readout name: Cellular Metabolic Activity
Reply: number alone, nothing else.

Inquiry: Recorded Cellular Metabolic Activity for Cc1ccc(C(C)C)cc1O , please?
Reply text: 0.238

Inquiry: Recorded Cellular Metabolic Activity for C=CCc1ccc(O)c(OC)c1 , please?
Reply text: 0.652

Inquiry: Recorded Cellular Metabolic Activity for COc1cc(CNC(=O)CCCC/C=C/C(C)C)ccc1O , please?
Reply text: 0.231

Inquiry: Recorded Cellular Metabolic Activity for O=C(/C=C/C=C/c1ccc2c(c1)OCO2)N1CCCCC1 , please?
Reply text: 0.426
